B1: CASP6 (parent)
chain: TCADRDNLTRRFSDLGFEVKCFND

Variants of: B1
protocol: protein stability index of a GFP-peptide fusion (GPS, HEK-293T) (PSI 1-6); higher = more stable;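 also: lentivirally expressed fusions sorted by FACS into six bins by GFP to DsRed ratio, PSI derived from sequencing read proportions per bin multiplied by bin number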
assayContext: c terminus: a fixed tail appended
Below, each of the variants is paired with its reported protein stability index value.

# mutantName, protein stability index
data = [
    ("R11K", 3.65),
    ("R10T", 3.61),
    ("D24H", 2.95),
    ("V19L", 2.57),
    ("F12S", 4.08),
    ("N7R", 2.98),
    ("R5Q", 3.44),
    ("F22I", 3.9),
    ("V19C", 1.95),
    ("C21K", 4.2),
    ("N23Q", 3.12),
    ("R10V", 3.2),
    ("R5K", 3.77),
    ("R10E", 3.83),
    ("T9I", 2.69),
    ("L15K", 4.11),
    ("C2F", 3.16),
    ("F22E", 4.46),
    ("D6R", 3.16),
    ("G16M", 2.14),
    ("N23G", 3.23),
    ("R10K", 3.75),
]
